- Test system: RXRa homodimer (NR concentration 180 nM)
- Assay: PBM binding z-score (relative to random genomic background probes); higher = stronger binding; sequences stand for … in GC…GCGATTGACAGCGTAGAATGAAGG
PBM binding z-score by entry:
Answer as a number with no unit attached.

# example entries with known answers
- Macromolecule sequence: "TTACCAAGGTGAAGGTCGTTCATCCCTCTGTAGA"
  PBM binding z-score: 1.75
- Macromolecule sequence: "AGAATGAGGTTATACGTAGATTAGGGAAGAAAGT"
  PBM binding z-score: 2.3
- Macromolecule sequence: "ATCTCTAGGTAAGACTCAGTTAAGTGAAGAACGC"
  PBM binding z-score: 0.197
- Macromolecule sequence: "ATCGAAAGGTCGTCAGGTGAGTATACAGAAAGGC"
  PBM binding z-score: 4.71
- Macromolecule sequence: "ATATGTAGGTTATCGAGTCATTCAGTTTGCGCAT"
  PBM binding z-score: 0.932
- Macromolecule sequence: "ACTCAAAGTTCATCTAGGTAACGTAAGATATGCT"
  PBM binding z-score: 4.62
- Macromolecule sequence: "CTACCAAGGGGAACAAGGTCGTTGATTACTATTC"
  PBM binding z-score: 0.759
- Macromolecule sequence: "ACTATTGGTTGACTTAGGGCAACCGATACGACGC"
  PBM binding z-score: 0.479
- Macromolecule sequence: "ACCTCTAGGTAAAAGTTCAGTGAATCCCGAGGAT"
  PBM binding z-score: 1.22
- Macromolecule sequence: "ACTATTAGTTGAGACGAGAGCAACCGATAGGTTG"
  PBM binding z-score: 0.11

Please turn your attention to the following entry.
Q: What measured PBM binding z-score goes with `AGTCAAAGTTCATCTAGGTGACGTAAGATATGCT` ?
Ans: 4.44
